assay: Metabolic stability in human liver microsomes assessed as compound remaining at 1 uM after 30 mins LC-MS analysis; type: ADME, Microsome; details: liver microsomes, read-out: Stability
Class (by remaining at 0.5 h, 1 µM) -- low class: < 50%; middle class: ≥ 50% and < 60%; high class: ≥ 60%

Before answering, review these 3 worked examples.
O=C(NCc1ccc(S(=O)(=O)c2ccccc2)cc1)c1nc2ccncc2s1 ... high class
O=C(NCc1ccc(S(=O)(=O)N2CCCCC2)cc1)c1cc2cnccc2s1 ... low class
O=C(NCc1ccc(S(=O)(=O)N2CCCCC2)cc1)c1ccc2nccn2c1 ... middle class

Ask: Given O=C(NCc1ccc(S(=O)(=O)c2ccccc2)cc1)c1ccc2ncncc2c1 , name the class its remaining at 0.5 h, 1 µM places it in.
Reply: low class

Ask: Which remaining at 0.5 h, 1 µM band matches O=C(NCc1ccc(S(=O)(=O)c2ccccc2)cc1)c1ccc2cncn2c1 ?
Reply: high class

Ask: Assign a category based on measured remaining at 0.5 h, 1 µM for O=C(NCc1ccc(S(=O)(=O)c2ccccc2)cc1)c1cc2ncccc2s1 and give only the class name.
Reply: high class

Ask: Class? Entry: O=C(NCc1ccc(S(=O)(=O)N2CCCCC2)cc1)c1cc2ccncc2s1
Reply: low class

Ask: Each molecule maps to one class by remaining at 0.5 h, 1 µM. Which class for O=C(NCc1ccc(S(=O)(=O)c2ccccc2)cc1)c1cc2ccncc2s1 ?
Reply: low class

Ask: Where would O=C(NCc1ccc(S(=O)(=O)N2CCCCC2)cc1)c1cc2ccncc2o1 land among the classes by reported remaining at 0.5 h, 1 µM?
Reply: middle class

Ask: Exam item: assign O=C(NCc1ccc(S(=O)(=O)c2cccc(F)c2)cc1)c1cc2cnccc2[nH]1 to the correct category.
Reply: high class

* * *

Below, each entry is listed with its recorded remaining at 0.5 h, 1 µM.
assay: Metabolic stability in mouse liver microsomes assessed as compound remaining at 1 uM after 30 mins LC-MS analysis; type: ADME, Microsome; conditions: liver microsomes, read-out: Stability
Please reply with the bare figure in % and do not write the unit itself.

Here are 6 compounds together with their reported answers.
O=C(NCc1ccc(S(=O)(=O)c2ccc(N3CCOCC3)nc2)cc1)c1ccc2nccn2c1 ... 75
O=C(NCc1ccc(S(=O)(=O)c2ccccc2)cc1)c1cc2ccncc2o1 ... 30
O=C(NCc1ccc(S(=O)(=O)c2ccc(N3CCOCC3)nc2)cc1)c1cc2cnccc2[nH]1 ... 72
O=C(NCc1ccc(S(=O)(=O)c2ccccc2)cc1)c1cnc2nccn2c1 ... 30
O=C(NCCc1ccc(S(=O)(=O)c2ccccc2)cc1)c1cc2cnccc2[nH]1 ... 31
Cc1cccc(S(=O)(=O)c2ccc(CNC(=O)c3cc4cnccc4[nH]3)cc2)c1 ... 32

Kindly note the recorded remaining at 0.5 h, 1 µM for O=C(NCc1ccc(S(=O)(=O)c2ccc(F)c(F)c2)cc1)c1cc2cnccc2[nH]1 , which is 58

Measured remaining at 0.5 h, 1 µM of O=C(NCc1ccc(S(=O)(=O)c2ccc(N3CCOCC3)nc2)cc1)c1cnc2nccn2c1 : 86

// remaining at 0.5 h, 1 µM lookup, compound = O=C(NCc1ccc(S(=O)(=O)N2CCCCC2)cc1)c1cc2cnccc2[nH]1 , result: 1.9

# remaining at 0.5 h, 1 µM (compound: O=C(NCc1ccc(S(=O)(=O)N2CCCCC2)cc1)c1ccc2nc[nH]c2c1 ) is 16

Entry Cn1c(C(=O)NCc2ccc(S(=O)(=O)c3ccccc3)cc2)cc2cnccc21 — recorded remaining at 0.5 h, 1 µM = 34

Value of remaining at 0.5 h, 1 µM reported for the compound O=C(NCc1ccc(S(=O)(=O)N2CCCCC2)cc1)c1ccn2cncc2c1 is 1

Entry under test: O=C(NCc1ccc(S(=O)(=O)c2ccc(F)cc2)cc1)c1cc2cnccc2[nH]1 . Its remaining at 0.5 h, 1 µM was 72

Lookup result for O=C(NCc1ccc(S(=O)(=O)c2ccccc2)cc1)c1cc2ncccc2s1 ; measured remaining at 0.5 h, 1 µM: 1.6

Reported remaining at 0.5 h, 1 µM for O=C(NCc1ccc(S(=O)(=O)c2ccccc2)cc1)c1ccc2cncn2c1 was 1.7

For O=C(NCc1ccc(S(=O)(=O)c2ccccc2)cc1)c1cn2ccnc2cn1 the compound record lists remaining at 0.5 h, 1 µM as 13
